I'd be grateful if you could share measured IC50 for these entries.
target: KRAS G12D (Homo sapiens (Human), UniProt P01116+P62937, G12D); test: Ras-Raf (BRAF RBD) disruption / FRET / MOA assay, KRAS G12D; assay type: biochemical; conditions: Ras-Raf disruption/FRET/MOA assay; class symbols; read-out: KRAS G12D FRET data IC50
Sequence (P01116-2 other isoform, or with tags, fused parts or gaps G12D): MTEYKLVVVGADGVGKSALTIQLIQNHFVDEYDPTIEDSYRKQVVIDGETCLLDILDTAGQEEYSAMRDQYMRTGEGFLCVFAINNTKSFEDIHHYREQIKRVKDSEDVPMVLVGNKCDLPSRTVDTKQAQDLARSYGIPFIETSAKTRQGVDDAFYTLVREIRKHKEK
Sequence (P62937 whole entry): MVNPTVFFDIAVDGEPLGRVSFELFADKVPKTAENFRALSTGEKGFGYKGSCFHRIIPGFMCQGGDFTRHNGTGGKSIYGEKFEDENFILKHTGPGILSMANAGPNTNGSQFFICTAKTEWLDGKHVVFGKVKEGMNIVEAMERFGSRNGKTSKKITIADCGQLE

-- ask Provide one value: measured IC50 of CCn1c(-c2cccnc2[C@H](C)OC)c2c3cc(ccc31)-c1cccc(c1)C[C@H](NC(=O)[C@@H](COC1CN(C(=O)C#C[C@H]3COCCN3C)C1)C(C)C)C(=O)N1CCC[C@H](N1)C(=O)OCC(C)(C)C2 (atropisomer, axis not shown) [Example A644]
-- reply > 10 µM

-- ask Provide one value: measured IC50 of C=CC(=O)N1CC(OCC(C(=O)N[C@H]2Cc3cccc(c3)-c3ccc4c(c3)c(c(-c3cccnc3[C@H](C)OC)n4CC(F)(F)F)CC(C)(C)COC(=O)[C@@H]3CCCN(N3)C2=O)C(C)C)C1 (mixture of isomers) [Example A453]
-- reply > 10 µM
